The values you see were collected from paper PMC6367351.

- assaySystem: T1, Methanocaldococcus infernus Elp3, full length (Methanocaldococcus infernus, UniProt D5VRB9 1-534)
- T1 chain: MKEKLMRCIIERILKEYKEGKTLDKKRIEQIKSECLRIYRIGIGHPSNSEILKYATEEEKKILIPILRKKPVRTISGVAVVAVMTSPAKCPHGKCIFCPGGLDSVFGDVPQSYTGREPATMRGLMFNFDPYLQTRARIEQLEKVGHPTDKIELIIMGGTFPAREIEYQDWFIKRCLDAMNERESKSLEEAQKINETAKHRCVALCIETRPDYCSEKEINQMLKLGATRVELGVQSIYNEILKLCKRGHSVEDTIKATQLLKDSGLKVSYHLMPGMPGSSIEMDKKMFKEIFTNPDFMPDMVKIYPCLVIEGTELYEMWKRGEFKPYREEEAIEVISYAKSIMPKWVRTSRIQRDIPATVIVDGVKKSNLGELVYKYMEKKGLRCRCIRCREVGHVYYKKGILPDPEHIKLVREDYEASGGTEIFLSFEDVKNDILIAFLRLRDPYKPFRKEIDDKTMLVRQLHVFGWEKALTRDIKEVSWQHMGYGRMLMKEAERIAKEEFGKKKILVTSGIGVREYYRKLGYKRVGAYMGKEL
- experimentNotes: ITC
pKd: −log10 of the molar value. Where no end group is shown, it is not given here.
Measured pKd accompanies every entry in the list below.

binder: YSTGGKAPRK-NH2 (not fully specified (N-terminus)) [histone H3 peptide H3(10–18) with an added N-terminal tyrosine]
pKd: < 3.46

Please find the next binder below.
pKd in this record for YMPSDKTIGG-NH2 (not fully specified (N-terminus)) [alpha-tubulin peptide Tubulin(36–44) with an added N-terminal tyrosine] : < 3.30
